Target: a4(V824A)b7 (human) (UniProt P13612)
Sequence (P13612 34-1032 V824A, chain 1 of 2): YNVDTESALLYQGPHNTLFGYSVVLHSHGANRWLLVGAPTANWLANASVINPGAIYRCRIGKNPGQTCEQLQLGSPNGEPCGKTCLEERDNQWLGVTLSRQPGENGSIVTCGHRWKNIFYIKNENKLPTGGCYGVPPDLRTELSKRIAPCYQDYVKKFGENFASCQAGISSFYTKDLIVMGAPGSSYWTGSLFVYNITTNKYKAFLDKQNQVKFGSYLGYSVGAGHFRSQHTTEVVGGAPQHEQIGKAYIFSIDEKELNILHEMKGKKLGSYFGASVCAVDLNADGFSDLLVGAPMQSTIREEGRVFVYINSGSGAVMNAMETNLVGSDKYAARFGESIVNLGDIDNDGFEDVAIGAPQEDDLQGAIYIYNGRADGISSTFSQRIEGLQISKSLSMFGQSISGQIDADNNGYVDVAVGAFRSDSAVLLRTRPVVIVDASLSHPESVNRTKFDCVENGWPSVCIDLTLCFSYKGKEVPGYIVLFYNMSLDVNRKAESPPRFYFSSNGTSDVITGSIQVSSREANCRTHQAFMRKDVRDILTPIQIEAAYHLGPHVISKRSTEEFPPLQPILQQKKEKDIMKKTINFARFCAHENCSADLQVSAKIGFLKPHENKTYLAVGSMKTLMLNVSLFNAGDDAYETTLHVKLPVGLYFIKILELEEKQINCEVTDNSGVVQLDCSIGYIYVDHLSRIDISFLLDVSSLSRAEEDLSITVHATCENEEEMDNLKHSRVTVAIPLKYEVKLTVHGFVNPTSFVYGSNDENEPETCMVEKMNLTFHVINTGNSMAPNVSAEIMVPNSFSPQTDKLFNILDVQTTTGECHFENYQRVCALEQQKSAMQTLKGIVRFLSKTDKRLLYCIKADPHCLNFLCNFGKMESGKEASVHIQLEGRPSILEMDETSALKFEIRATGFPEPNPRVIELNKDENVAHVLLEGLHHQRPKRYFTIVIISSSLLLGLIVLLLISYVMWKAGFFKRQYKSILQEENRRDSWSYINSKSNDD
Sequence (P26010 20-798, chain 2 of 2, further chain): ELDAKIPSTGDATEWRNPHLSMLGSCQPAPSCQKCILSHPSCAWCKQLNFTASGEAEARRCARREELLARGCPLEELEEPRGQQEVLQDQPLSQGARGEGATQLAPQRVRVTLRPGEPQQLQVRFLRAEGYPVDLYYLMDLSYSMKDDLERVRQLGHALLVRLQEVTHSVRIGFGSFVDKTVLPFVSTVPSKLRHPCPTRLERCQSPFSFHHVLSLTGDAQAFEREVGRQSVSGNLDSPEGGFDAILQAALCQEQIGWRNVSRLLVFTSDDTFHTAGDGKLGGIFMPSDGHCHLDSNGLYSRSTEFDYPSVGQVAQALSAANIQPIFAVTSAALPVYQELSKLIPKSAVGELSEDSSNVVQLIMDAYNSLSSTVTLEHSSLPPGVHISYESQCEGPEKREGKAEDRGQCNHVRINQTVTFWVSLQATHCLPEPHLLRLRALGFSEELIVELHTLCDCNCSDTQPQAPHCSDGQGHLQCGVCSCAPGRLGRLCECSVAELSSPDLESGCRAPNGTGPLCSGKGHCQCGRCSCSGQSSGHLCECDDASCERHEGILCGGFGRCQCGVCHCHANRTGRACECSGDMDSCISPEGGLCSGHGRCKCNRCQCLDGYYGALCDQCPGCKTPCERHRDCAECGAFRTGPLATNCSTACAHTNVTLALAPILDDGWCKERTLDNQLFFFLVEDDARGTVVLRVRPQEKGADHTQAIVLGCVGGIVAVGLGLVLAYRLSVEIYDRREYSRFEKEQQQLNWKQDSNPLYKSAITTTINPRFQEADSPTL
Experiment: FACS on transfected 293 cells, 1 microG/ml, PE anti-human IgG
Readout kind: fluorescence staining intensity (geometric mean)
One number for each entry.

So what's the measured fluorescence staining intensity (geometric mean) for this one? 3A5 (antibody, V domains shown, Fully human monoclonal from XenoMouse (human IgG2 or IgG4); kappa light chain; also called 3A5K; 3A5H) VH: QVQLVQSGAEVKKPGASVKVSCKVSGYTLNDLSMHWVRQAPGKGLEWMGGFDPAEGKIISAQKFQDRVTMTDDTSTDTAYMELSSLRSEDSAVYYCATLDFSSWFDPWGQGTLVTVSS VL: DIQMTQSPSSVSASVGDRVTITCRASQGVISWLAWYQQKPGMAPKLLIYAASILQSGVPSRFSGSGSGTDFTLTISSLQPEDFATYYCQQANSFPWTFGQGTNVEIK
110
